- procedure-summary: ACEA_ER_80hr: ACEA Biosciences xCELLigence Real-Time Cell Analysis on Estrogen Receptor Agonism for Proliferation (AID 2282667)
- condition-info: T47D proliferation, impedance (xCELLigence), 80 h
Inconclusive results are not listed. The source made the active and inactive calls. How the source made its calls: active means hit-call score of the fitted dose curve at least 0.9, where 1 is the maximum; inconclusive means response in the unintended direction; inactive means score below 0.9.
measurement-kind: AC50

Example entries begin here.
{"molecule": "O=C(O)C(F)(F)C(F)(F)C(F)(F)OC(F)(F)F", "measurement-kind": "AC50", "observed": "inactive"}
{"molecule": "O=C(c1ccccc1)c1ccc(Cl)cc1", "measurement-kind": "AC50", "observed": "inactive"}
{"molecule": "CCN(CC)c1ccc(C=O)cc1", "measurement-kind": "AC50", "observed": "0.0998 µM (active)"}
{"molecule": "CC(C)(C)C(=O)C1C(=O)c2ccccc2C1=O", "measurement-kind": "AC50", "observed": "10.4 µM (active)"}
{"molecule": "FC(F)(F)C(F)(F)C(F)(F)CC1CO1 (stereo not drawn)", "measurement-kind": "AC50", "observed": "inactive"}

Identify measured AC50 corresponding to "CCOCOCC"
inactive

Identify measured AC50 corresponding to "OCCCc1cccnc1"
inactive

Identify measured AC50 corresponding to "NCC(F)(F)C(F)(F)C(F)(F)C(F)(F)C(F)(F)C(F)(F)F"
inactive

----------
- Read-out: Pselectin, SELP (gene 6403)
- procedure-summary: BSK_4H_Pselectin: BioMAP Diversity Plus: 4H Assay for Pselectin Biomarker Activity (AID 2283026)
- condition-info: primary human endothelial cells (HUVEC); actives raise or lower the signal
Activity calls are given as the source filed them. Rule for the calls: active = hit-call score of the fitted dose curve at least 0.9, where 1 is the maximum; inactive = score below 0.9.
Can you answer with just one of these options? active, inactive

Short answer needed: outcome of this test for "NC(=O)C(F)(F)C(F)(F)C(F)(F)C(F)(F)C(F)(F)C(F)(F)C(F)(F)F" ?
inactive

Short answer needed: outcome of this test for "NC(=O)C(F)(F)C(F)(F)C(F)(F)C(F)F" ?
inactive

Short answer needed: outcome of this test for "Cc1cc(O)c(C(C)(C)C)cc1C(C)(C)C" ?
active

Short answer needed: outcome of this test for "OCC(F)(F)C(F)(F)C(F)(F)C(F)(F)C(F)(F)C(F)(F)CO" ?
inactive

Short answer needed: outcome of this test for "Cc1ccc(S(=O)(=O)C(I)I)cc1" ?
active

Short answer needed: outcome of this test for "O=C(F)C1(F)C(F)(F)C(F)(F)C(F)(F)C(F)(F)C1(F)F" ?
inactive

Short answer needed: outcome of this test for "NS(=O)(=O)C(F)(F)C(F)(F)C(F)(F)C(F)(F)C(F)(F)C(F)(F)F" ?
inactive

Short answer needed: outcome of this test for "CCN(CC)c1ccc(C=O)c(O)c1" ?
inactive

Short answer needed: outcome of this test for "OCC(F)(F)C(F)(F)C(F)(F)CO" ?
inactive

Short answer needed: outcome of this test for "CCOC(C=C(C)CCC=C(C)C)OCC" ?
active

Short answer needed: outcome of this test for "Nc1cc([N+](=O)[O-])cc(Cl)c1O" ?
inactive

Short answer needed: outcome of this test for "NCC(F)(F)C(F)(F)C(F)(F)C(F)(F)C(F)(F)C(F)(F)F" ?
inactive

----------
- procedure-summary: ATG_NFI_CIS: Attagene CIS-FACTORIAL HepG2 Assay for human Nuclear Factor I (NFI) (AID 2282989)
- condition-info: HepG2 cis-regulatory reporter, NFI response element transcription; actives raise or lower the signal
Activity calls are given as the source filed them. Rule for the calls: active = hit-call score of the fitted dose curve at least 0.9, where 1 is the maximum; inactive = score below 0.9.
Can you answer with just one of these options? label 1 (active), label 0 (inactive)

Short answer needed: outcome of this test for "CCCCCCCC/C=C\CCCCCCCC(=O)N(C)CC(=O)O" ?
label 0

Short answer needed: outcome of this test for "CCc1ccc(C)nc1" ?
label 0

Short answer needed: outcome of this test for "Cc1ccc(S(=O)(=O)C(I)I)cc1" ?
label 1

Short answer needed: outcome of this test for "CCOCN(C(=O)CS(=O)(=O)O)c1c(C)cccc1CC" ?
label 0

Short answer needed: outcome of this test for CO[Si](CCCOCC1CO1)(OC)OC (configuration not stated) ?
label 0

Short answer needed: outcome of this test for "CCCCCCCCCCCCCC[P+](CCCC)(CCCC)CCCC" ?
label 1

Short answer needed: outcome of this test for "NC(=O)C(F)(F)C(F)(F)C(F)(F)C(F)(F)C(F)(F)C(F)(F)C(F)(F)F" ?
label 0
